- procedure_summary: The drug is tested on Z-001 corresponding to mouse gut metagenome with ENA study accession number: PRJEB37062 and ENA sample accession number: ERS12561801 for biotransformation under anaerobic condition. The drug concentrations were measured over 9 timepoints collected between 0 and 24 hours of incubation by liquid-chromatography-coupled mass spectrometry (LC–MS); also: call rule not given here
- settings: 2 µM
attribute_measured: Bacterial Biotransformation

Field: example entries. Status: answers known.
compound | attribute_measured | value_reported
C=CC[C@@H]1/C=C(\C)C[C@H](C)C[C@H](OC)[C@H]2O[C@@](O)(C(=O)C(=O)N3CCCC[C@H]3C(=O)O[C@H](/C(C)=C/[C@@H]3CC[C@@H](O)[C@H](OC)C3)[C@H](C)[C@@H](O)CC1=O)[C@H](C)C[C@@H]2OC.O | Bacterial Biotransformation | Compound NOT metabolized
CC(=O)OCC(=O)NCCCOc1cccc(CN2CCCCC2)c1 [ROXATIDINE ACETATE] | Bacterial Biotransformation | Compound metabolized
C[C@@H](c1ncncc1F)[C@](O)(Cn1cncn1)c1ccc(F)cc1F | Bacterial Biotransformation | Compound NOT metabolized
CC(C)(C)NC[C@H](O)COc1nsnc1N1CCOCC1.O=C(O)/C=C\C(=O)O [TIMOLOL MALEATE] | Bacterial Biotransformation | Compound NOT metabolized
CN(CCOc1ccc(CC2SC(=O)NC2=O)cc1)c1ccccn1.O=C(O)/C=C\C(=O)O (stereo unspecified) [ROSIGLITAZONE MALEATE] | Bacterial Biotransformation | Compound NOT metabolized

Which Bacterial Biotransformation value belongs to CCOc1cc(CC(=O)N[C@@H](CC(C)C)c2ccccc2N2CCCCC2)ccc1C(=O)O [REPAGLINIDE] ?
Compound metabolized

`Cc1ccc(NC(=O)c2ccc(CN3CCN(C)CC3)cc2)cc1Nc1nccc(-c2cccnc2)n1` ?
Compound NOT metabolized

CCN(C)C(=O)Oc1cccc([C@H](C)N(C)C)c1.O=C(O)C(O)C(O)C(=O)O [RIVASTIGMINE TARTRATE] ?
Compound NOT metabolized

CC(=O)Nc1ccc(OC(C)=O)cc1 [DIACETAMATE] ?
Compound metabolized

COc1ccc(C(CN(C)C)C2(O)CCCCC2)cc1 (stereo unspecified) ?
Compound metabolized

Cc1cc(C)cc(OCC2CNC(=O)O2)c1 (stereo unspecified) ?
Compound NOT metabolized
